# target_system: Dual specificity protein phosphatase 6 (Homo sapiens)
# measurement_protocol: DUSP6 inhibitors restoring Erk phosphorylation by chemical complementation, primary imaging in DUSP6-transfected HeLa (AID 609);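 further: phospho-Erk level distribution per well compared with pooled transfected vehicle control wells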
# cond: HeLa MKP-3 transfected, phospho-Erk imaging KS statistic; at 10 µM; hits give high values; cells stimulated with TPA for 15 min
Activity calls are given as the source filed them.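 How the source made its calls: active means compounds giving at least 50% inhibition in the cell-based MKP-3 phosphatase rescue imaging test; inactive means the rest.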
metric: inhibition

INSERT INTO results (record_smiles, metric, reported_value) VALUES
  ('c1ccc(-c2nnc3n2N=C(c2ccc4c(c2)OCO4)CS3)nc1', 'inhibition', '-11.5% (inactive)'),
  ('COC(=O)c1cc(Br)c(=O)n(-c2nccs2)c1', 'inhibition', '38.2% (inactive)'),
  ('CC(=O)c1cc2c(=O)c3ccccc3oc2nc1C', 'inhibition', '26.5% (inactive)'),
  ('CCCCCC(=O)N1CC2(C)CN(C(=O)CCCCC)CC(C)(C1)C2=O', 'inhibition', '7.42% (inactive)'),
  ('OC[C@H]1O[C@@H](n2cnc3c(Nc4ccccc4)ncnc32)[C@H](O)[C@@H]1O', 'inhibition', '-0.828% (inactive)'),
  ('CCCN(CCC)S(=O)(=O)c1ccc(C(=O)O)cc1', 'inhibition', '-2.46% (inactive)');
